Ref: ChEMBL document CHEMBL2311508

# experiment: Selectivity index, ratio of CC50 for african green monkey Vero cells to IC50 for chloroquine-sensitive Plasmodium falciparum 3D7
# Format: functional
# Lookup of reported Ratio CC50/IC50 keyed by entry
Reply briefly: the number, and no unit.

record-smiles: Cc1cc(N2CCN(c3ccccc3)CC2)nc(Nc2ccc(OCCCCCOc3ccc(Nc4nc(C)cc(N5CCN(c6ccccc6)CC5)n4)cc3)cc2)n1
observed-property: Ratio CC50/IC50
reading: 1688
--
record-smiles: Cc1cc(N2CCN(C)CC2)nc(Nc2ccc(OCCCCCOc3ccc(Nc4nc(C)cc(N5CCN(C)CC5)n4)cc3)cc2)n1
observed-property: Ratio CC50/IC50
reading: 43.97
--
record-smiles: Cc1cc(NCc2ccc(F)cc2)nc(Nc2ccc(OCCCCCOc3ccc(Nc4nc(C)cc(NCc5ccc(F)cc5)n4)cc3)cc2)n1
observed-property: Ratio CC50/IC50
reading: 1051.51
--
record-smiles: COc1ccc(CNc2cc(C)nc(Nc3ccc(OCCCCCOc4ccc(Nc5nc(C)cc(NCc6ccc(OC)cc6)n5)cc4)cc3)n2)cc1
observed-property: Ratio CC50/IC50
reading: 288.28
--
record-smiles: Cc1cc(NCc2ccccc2)nc(Nc2ccc(OCCCCCOc3ccc(Nc4nc(C)cc(NCc5ccccc5)n4)cc3)cc2)n1
observed-property: Ratio CC50/IC50
reading: 429.15
--
record-smiles: Cc1cc(NC2CC2)nc(Nc2ccc(OCCCCCOc3ccc(Nc4nc(C)cc(NC5CC5)n4)cc3)cc2)n1
observed-property: Ratio CC50/IC50
reading: 89.6
--
record-smiles: CCN1CCN(c2cc(C)nc(Nc3ccc(OCCCCCOc4ccc(Nc5nc(C)cc(N6CCN(CC)CC6)n5)cc4)cc3)n2)CC1
observed-property: Ratio CC50/IC50
reading: 157.9
--
record-smiles: Cc1cc(N2CCOCC2)nc(Nc2ccc(OCCCCCOc3ccc(Nc4nc(C)cc(N5CCOCC5)n4)cc3)cc2)n1
observed-property: Ratio CC50/IC50
reading: 7.82

Exam item: Given the entry Cc1cc(NC2CCCC2)nc(Nc2ccc(OCCCCCOc3ccc(Nc4nc(C)cc(NC5CCCC5)n4)cc3)cc2)n1 , report its measured Ratio CC50/IC50.
Marked response: 57.71
